Conditions: 288.15 K; 10000 kPa; Liquid; Vibrating tube method
observation_type: mass density (kg/m3)

[a] CCCCCCCCCC [decane]
[b] COC(=O)OC [dimethyl carbonate]
Ask: Hi, I'm comparing two records. Which one has the lower mass density, a or b ? Label of pick, please.
Reply: a

----------
Conditions: 288.15 K; 100 kPa; Liquid; Vibrating tube method
observation_type: mass density (kg/m3)

Completed entries (count: 2):
>>> numeric_value("CCOC(=O)OCC [diethyl carbonate]")
980.3
>>> numeric_value("CCCCCCCC [octane]")
706.6

[a] CCCCCCCCCC [decane]
[b] COC(=O)OC [dimethyl carbonate]
Ask: Given the listed records, identify the one among a and b with higher mass density. Label of pick, please.
Reply: b

----------
Conditions: 288.15 K; 30000 kPa; Liquid; Vibrating tube method
observation_type: mass density (kg/m3)

Completed entries (count: 2):
>>> numeric_value("CCCCCCCC")
728.1
>>> numeric_value("CCOC(=O)OCC [diethyl carbonate]")
1003.6

[a] COC(=O)OC [dimethyl carbonate]
[b] CCCCCCCCCC
Ask: Hi, I'm comparing two records. Which one has the lower mass density, a or b ? Label of pick, please.
Reply: b
(b: 753.2 kg/m3, a: 1100.3 kg/m3)

----------
Details: 308.15 K; 20000 kPa; Liquid; Vibrating tube method
observation_type: mass density (kg/m3)

>>> numeric_value("CCOC(=O)OCC [diethyl carbonate]")
975.7
>>> numeric_value("CCCCCCCC [octane]")
707.3

[A] CCCCCCCCCC [decane]
[B] COC(=O)OC [dimethyl carbonate]
Ask: Hi, I'm comparing two records. Which one has the lower mass density, A or B ? Label of pick, please.
Reply: A

----------
Settings: 298.15 K; 20000 kPa; Liquid; Vibrating tube method
observation_type: mass density (kg/m3)

Completed entries (count: 2):
>>> numeric_value("CCOC(=O)OCC [diethyl carbonate]")
986
>>> numeric_value("CCCCCCCCCC")
740.3

[P] COC(=O)OC [dimethyl carbonate]
[Q] CCCCCCCC
Ask: Hi, I'm comparing two records. Which one has the lower mass density, P or Q ? Label of pick, please.
Reply: Q
(Q: 714.6 kg/m3, P: 1080.5 kg/m3)

----------
Settings: 308.15 K; 40000 kPa; Liquid; Vibrating tube method
observation_type: mass density (kg/m3)

>>> numeric_value("CCOC(=O)OCC [diethyl carbonate]")
991.3
>>> numeric_value("CCCCCCCCCC [decane]")
745.9

[A] CCCCCCCC [octane]
[B] COC(=O)OC [dimethyl carbonate]
Ask: Given the listed records, identify the one among A and B with higher mass density. Label of pick, please.
Reply: B

----------
Details: 288.15 K; 5000 kPa; Liquid; Vibrating tube method
observation_type: mass density (kg/m3)

>>> numeric_value("CCCCCCCCCC")
737.2
>>> numeric_value("CCOC(=O)OCC [diethyl carbonate]")
984.5

[P] CCCCCCCC
[Q] COC(=O)OC [dimethyl carbonate]
Ask: Given the listed records, identify the one among P and Q with higher mass density. Label of pick, please.
Reply: Q
(Q: 1080.6 kg/m3, P: 710.9 kg/m3)

----------
Details: 298.15 K; 30000 kPa; Liquid; Vibrating tube method
observation_type: mass density (kg/m3)

Completed entries (count: 2):
>>> numeric_value("CCCCCCCC [octane]")
721.4
>>> numeric_value("CCOC(=O)OCC [diethyl carbonate]")
993.6

[A] CCCCCCCCCC [decane]
[B] COC(=O)OC [dimethyl carbonate]
Ask: Given the listed records, identify the one among A and B with higher mass density. Label of pick, please.
Reply: B

----------
Details: 298.15 K; 40000 kPa; Liquid; Vibrating tube method
observation_type: mass density (kg/m3)

>>> numeric_value("CCCCCCCC [octane]")
727.7
>>> numeric_value("COC(=O)OC [dimethyl carbonate]")
1095.9
>>> numeric_value("CCCCCCCCCC [decane]")
752.2
>>> numeric_value("CCOC(=O)OCC [diethyl carbonate]")
1000.8

----------
Conditions: 308.15 K; 100 kPa; Liquid; Vibrating tube method
observation_type: mass density (kg/m3)

>>> numeric_value("CCCCCCCCCC")
718.3
>>> numeric_value("CCOC(=O)OCC [diethyl carbonate]")
957.7

[I] CCCCCCCC
[II] COC(=O)OC [dimethyl carbonate]
Ask: Given the listed records, identify the one among I and II with higher mass density. Label of pick, please.
Reply: II
(II: 1049.4 kg/m3, I: 690.5 kg/m3)

----------
Details: 298.15 K; 10000 kPa; Liquid; Vibrating tube method
observation_type: mass density (kg/m3)

Completed entries (count: 2):
>>> numeric_value("CCCCCCCC [octane]")
707
>>> numeric_value("CCOC(=O)OCC [diethyl carbonate]")
977.8

[1] CCCCCCCCCC [decane]
[2] COC(=O)OC [dimethyl carbonate]
Ask: Hi, I'm comparing two records. Which one has the lower mass density, 1 or 2 ? Label of pick, please.
Reply: 1
(1: 733.5 kg/m3, 2: 1072.1 kg/m3)

----------
Details: 308.15 K; 10000 kPa; Liquid; Vibrating tube method
observation_type: mass density (kg/m3)

>>> numeric_value("CCCCCCCC")
699.4
>>> numeric_value("COC(=O)OC [dimethyl carbonate]")
1059.4
>>> numeric_value("CCCCCCCCCC")
726.2
>>> numeric_value("CCOC(=O)OCC [diethyl carbonate]")
967.1

----------
Conditions: 288.15 K; 20000 kPa; Liquid; Vibrating tube method
observation_type: mass density (kg/m3)

[A] CCCCCCCCCC [decane]
[B] COC(=O)OC [dimethyl carbonate]
Ask: Hi, I'm comparing two records. Which one has the lower mass density, A or B ? Label of pick, please.
Reply: A

----------
Settings: 298.15 K; 5000 kPa; Liquid; Vibrating tube method
observation_type: mass density (kg/m3)

>>> numeric_value("CCCCCCCC")
703.4
>>> numeric_value("CCCCCCCCCC")
730.2
>>> numeric_value("COC(=O)OC [dimethyl carbonate]")
1068
>>> numeric_value("CCOC(=O)OCC [diethyl carbonate]")
973.8

----------
Details: 308.15 K; 30000 kPa; Liquid; Vibrating tube method
observation_type: mass density (kg/m3)

Completed entries (count: 2):
>>> numeric_value("CCOC(=O)OCC [diethyl carbonate]")
983.8
>>> numeric_value("CCCCCCCC")
714.5

[1] CCCCCCCCCC
[2] COC(=O)OC [dimethyl carbonate]
Ask: Given the listed records, identify the one among 1 and 2 with higher mass density. Label of pick, please.
Reply: 2
(2: 1076.7 kg/m3, 1: 740 kg/m3)

The values you see were collected from the NIST ThermoML archive (doi:10.1016/j.jct.2012.11.011).
